Tested on: Hippocampus
ASSAY DETAILS: Antiexcitatory activity in rat hippocampus pyramidal CA1 region assessed as reduction in field excitatory postsynaptic potential at 16 uM by electrophysiologic method
Assay type: functional
The source made the active and inactive calls. The rule behind the calls is not given here.
REPORTED PROPERTY: Activity

Worked examples follow.
> print(dat)
                                 mol.smiles    result
1  Nc1ccccc1C(=O)C[C@H](N)C(=O)O.O=S(=O)(O)O  inactive
2     O=C(NCCN1CCCCC1)c1cc(=O)c2ccccc2[nH]1  inactive
3     CN1CCN(C(=O)c2cc(=O)c3ccccc3[nH]2)CC1  inactive
4  O=C(c1cc(=O)c2ccccc2[nH]1)N1CCN(Cc2ccccc2)CC1  inactive
5      CCN(CC)CCNC(=O)c1cc(=O)c2ccccc2[nH]1  inactive

For CN(C)CCNC(=O)c1cc(O)c2ccccc2n1.Cl , what is its reported Activity?
50%
